Molecular target: Protein deacetylase HDAC6 (Homo sapiens)
Conditions: at 10 µM
Out of some 5,600 compounds screened, about 390 (7%) showed an effect of 50% or more. The list comes from a sample in which strong results are over-represented; it also holds close analogues and randomly drawn compounds.
property: inhibition (%)
Please state the figure in %; there is no need to write the unit.

compound: COc1cc(C)c2c(Oc3cccc(C(F)(F)F)c3)c(OC)cc(NC(C)CCCN)c2n1 (stereo unspecified)
unitOfMeasurement: %
assayResult: 19.9
--
compound: CCN1C(=O)NC(c2ccccc2)C1=O (stereo unspecified)
unitOfMeasurement: %
assayResult: 22.6
--
compound: Cc1ccc(N2CCN(CCC3NC(=O)c4ccccc43)CC2)cc1C (stereo unspecified)
unitOfMeasurement: %
assayResult: 0.62
--
compound: COc1ccc2[nH]c(-c3ccccc3)c(CCNC(C)=O)c2c1
unitOfMeasurement: %
assayResult: 9.99
--
compound: CC(O)CCCCn1c(=O)c2c(ncn2C)n(C)c1=O (stereo unspecified)
unitOfMeasurement: %
assayResult: 14.8

# input Which inhibition reading was recorded for the compound O=c1ncn2nc(Sc3ccc(F)cc3F)ccc2c1-c1c(Cl)cccc1Cl ?
# output 36.3

# input Entry to check: Clc1cccc2c1CN(C1=NCCN1)C2
# output -3.56

# input Entry to check: c1ccc(-c2nc(CN3CCN(c4ncccn4)CC3)c[nH]2)cc1
# output -4.48

# input Entry to check: c1cc(CN2CCCCC2)cc(OCCCNc2nc3ccccc3s2)c1
# output 59.6

# input Entry to check: CCCCOc1ccc(C(=O)Nc2ccc(F)cc2F)cc1
# output 69.8

# input Entry to check: CSc1ccc(C(=O)/C=C/c2cc(C)c(OC(C)(C)C(=O)O)c(C)c2)cc1
# output -7.51

====

Target: Protein deacetylase HDAC6 (Homo sapiens) (UniProt Q9UBN7)
Sequence (whole entry): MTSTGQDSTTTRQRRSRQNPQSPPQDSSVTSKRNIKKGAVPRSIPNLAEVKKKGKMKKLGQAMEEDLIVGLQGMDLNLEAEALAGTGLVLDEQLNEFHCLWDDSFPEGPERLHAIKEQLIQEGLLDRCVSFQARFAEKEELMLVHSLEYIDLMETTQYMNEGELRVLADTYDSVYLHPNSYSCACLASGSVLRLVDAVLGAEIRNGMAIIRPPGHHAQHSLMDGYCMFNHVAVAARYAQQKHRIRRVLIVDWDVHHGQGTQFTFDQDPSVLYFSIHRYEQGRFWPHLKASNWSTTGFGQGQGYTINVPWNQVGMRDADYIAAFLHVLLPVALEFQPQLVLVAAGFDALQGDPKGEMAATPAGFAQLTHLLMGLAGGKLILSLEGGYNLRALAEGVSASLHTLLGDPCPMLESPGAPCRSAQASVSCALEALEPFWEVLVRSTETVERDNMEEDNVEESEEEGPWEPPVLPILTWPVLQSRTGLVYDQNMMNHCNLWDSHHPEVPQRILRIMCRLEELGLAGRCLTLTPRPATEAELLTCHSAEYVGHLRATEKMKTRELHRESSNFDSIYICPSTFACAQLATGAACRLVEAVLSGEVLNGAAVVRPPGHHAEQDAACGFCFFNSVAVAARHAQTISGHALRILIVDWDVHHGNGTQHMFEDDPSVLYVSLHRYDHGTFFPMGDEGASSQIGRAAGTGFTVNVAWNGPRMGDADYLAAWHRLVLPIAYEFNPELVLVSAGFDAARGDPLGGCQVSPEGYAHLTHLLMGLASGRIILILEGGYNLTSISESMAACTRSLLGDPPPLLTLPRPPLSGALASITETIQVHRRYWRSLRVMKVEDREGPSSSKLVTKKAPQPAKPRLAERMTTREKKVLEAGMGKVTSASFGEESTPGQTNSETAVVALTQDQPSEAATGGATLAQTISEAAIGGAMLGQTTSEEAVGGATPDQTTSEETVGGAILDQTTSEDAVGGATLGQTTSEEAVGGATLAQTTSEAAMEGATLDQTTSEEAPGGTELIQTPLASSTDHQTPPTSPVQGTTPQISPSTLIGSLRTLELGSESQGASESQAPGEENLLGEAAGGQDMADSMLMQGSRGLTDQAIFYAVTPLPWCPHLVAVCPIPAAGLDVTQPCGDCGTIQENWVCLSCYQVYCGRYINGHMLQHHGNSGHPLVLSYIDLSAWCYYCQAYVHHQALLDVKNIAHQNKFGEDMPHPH
Conditions: at 10 µM
Hit rate of the full screen: of about 5,600 compounds, about 390 (7%) showed an effect of 50% or more. This excerpt belongs to a sample that is enriched for strong results.
inhibition values for the compounds below.
Please state the figure in %; there is no need to write the unit.

compound: CN(C)CCC1(c2ccc(Cl)cc2)Cc2ccccc2C(=O)O1 (racemic)
inhibition (%): 3.8
//
compound: Cc1cc(=O)oc2c(C=O)c(O)ccc12
inhibition (%): -7.63
//
compound: O=C(O)CC(O)C(=O)O (stereo unspecified)
inhibition (%): 3.05

# input Which inhibition reading was recorded for the compound O[C@@H]1CO[C@H]2[C@@H]1OC[C@@H]2O ?
# output 0.18

# input Entry to check: Cc1cc(=O)oc2cc(O)ccc12
# output 35.6

# input Entry to check: C[C@@H]1O[C@@H](Oc2c(-c3cc(O)c(O)c(O)c3)oc3cc(O)cc(O)c3c2=O)[C@H](O)[C@H](O)[C@H]1O
# output -6.79

# input Entry to check: Oc1ccc(/C=C/c2cc(O)cc(O)c2)cc1
# output 97

# input Entry to check: OC[C@H]1O[C@@H]2O[C@H]3[C@H](O)[C@@H](O)[C@@H](O[C@H]4[C@H](O)[C@@H](O)[C@@H](O[C@H]5[C@H](O)[C@@H](O)[C@@H](O[C@H]6[C@H](O)[C@@H](O)[C@@H](O[C@H]7[C@H](O)[C@@H](O)[C@@H](O[C@H]8[C@H](O)[C@@H](O)[C@@H](O[C@H]1[C@H](O)[C@H]2O)O[C@@H]8CO)O[C@@H]7CO)O[C@@H]6CO)O[C@@H]5CO)O[C@@H]4CO)O[C@@H]3CO
# output -4.02

# input Entry to check: N[C@H](CSC(c1ccccc1)(c1ccccc1)c1ccccc1)C(=O)O
# output -3.09

# input Entry to check: COc1cc2c(cc1OC)C(c1ccc(N)cc1)=NNC(=O)C2
# output -3.23
